Source: patent US20200181677A1

target: PKCα catalytic domain (Homo sapiens, UniProt P17252); construct: All activity assays were performed with 50 nM isolated catalytic domain in PKC Buffer; fused substrate peptide with the fluorophore next to it (N, cleaved yes); second fluorophore of the mCerulean/mCitrine pair (next to the catalytic domain) (N); FLAG; made in house; host or cells: Sf9 insect cells (pBiex1), then on-resin TEV cleavage; assay: Kinase activity assay (ATP consumption, Kinase-Glo Max); format: biochemical; conditions: 500 μM peptide, isolated catalytic domain
measure-name: Kinase activity toward the peptide substrate, in words

substance="10: peptide substrate RRRRSIIFI, SEQ ID NO:22, Optimized PKA Sub.; Ala-substituted in FRET sensors [Peptide 10]" measured_result="poor activity"
substance="3: peptide substrate LAGGFSFKKNK, SEQ ID NO:8, from MARCKS (KLAGFSFKKNK) [Peptide 3]" measured_result="high activity"
substance="11: peptide substrate FKLKRKGTFKKFA, SEQ ID NO:35, Optimized PKCβ Sub.; Ala-substituted sensor form SEQ ID NO:23 [Peptide 11]" measured_result="poor activity"
substance="1: peptide substrate ADKRRSVRIGA, SEQ ID NO:4, from Kit/SCRF; Ala-substituted in FRET sensors [Peptide 1]" measured_result="high activity"
